Origin of values: paper PMC2842482

Molecular target: UniProt:P05089
Experiment: Inhibition of Mn-hArgI by L-Orn and L-Leu
Assay type: biochemical
Settings: read-out: Ki L-Orn, pH 7.4
measured-endpoint: Ki (mM)
Entry rule: numbers only, all in mM.

What reported Ki corresponds to NCCC[C@H](N)C(=O)O on UniProt:P05089? 2.4

###

Biological target: UniProt P05089
Assay: Inhibition of Co-hArgI by L-Orn and L-Leu
Type: biochemical
Details: Ki L-Leu, pH 8.5
measured-endpoint: Ki (µM)
Entry rule: numbers only, all in µM.

Fill in: Ki of CC(C)C[C@H](N)C(=O)O is ___ 1300

###

Molecular target: Mn-hArgI (Homo sapiens)
Sequence (P05089 1-322): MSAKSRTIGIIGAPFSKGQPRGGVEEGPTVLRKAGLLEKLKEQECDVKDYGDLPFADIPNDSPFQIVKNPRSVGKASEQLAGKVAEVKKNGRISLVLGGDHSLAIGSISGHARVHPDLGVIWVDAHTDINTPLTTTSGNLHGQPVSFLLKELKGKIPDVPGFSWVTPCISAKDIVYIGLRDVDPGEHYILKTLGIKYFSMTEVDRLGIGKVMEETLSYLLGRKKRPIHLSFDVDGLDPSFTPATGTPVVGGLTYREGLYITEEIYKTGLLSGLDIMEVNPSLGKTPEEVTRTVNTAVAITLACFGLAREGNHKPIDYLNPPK
Assay: Inhibition of Mn-hArgI by L-Orn and L-Leu
Assay type: biochemical
Details: Ki L-Leu, pH 7.4
measured-endpoint: Ki (µM)
Entry rule: numbers only, all in µM.

What reported Ki corresponds to CC(C)C[C@H](N)C(=O)O on Mn-hArgI (Homo sapiens)? 390

###

Molecular target: UniProtKB P05089
Experiment: Inhibition of Co-hArgI by L-Orn and L-Leu
Assay type: biochemical
Details: read-out: Ki L-Orn, pH 7.4
measured-endpoint: Ki (µM)
Entry rule: numbers only, all in µM.

Fill in: Ki of NCCC[C@H](N)C(=O)O [L-Orn, L-Ornithine] is ___ 76

###

Target: Co-hArgI (Homo sapiens)
Experiment: Inhibition of Co-hArgI by L-Orn and L-Leu
Format: biochemical
Settings: read-out: Ki L-Orn, pH 8.5
measured-endpoint: Ki (µM)
Entry rule: numbers only, all in µM.

Fill in: Ki of NCCC[C@H](N)C(=O)O [L-Orn, L-Ornithine] is ___ 50

###

Molecular target: Mn-hArgI (Homo sapiens, UniProt P05089)
Sequence (P05089 1-322): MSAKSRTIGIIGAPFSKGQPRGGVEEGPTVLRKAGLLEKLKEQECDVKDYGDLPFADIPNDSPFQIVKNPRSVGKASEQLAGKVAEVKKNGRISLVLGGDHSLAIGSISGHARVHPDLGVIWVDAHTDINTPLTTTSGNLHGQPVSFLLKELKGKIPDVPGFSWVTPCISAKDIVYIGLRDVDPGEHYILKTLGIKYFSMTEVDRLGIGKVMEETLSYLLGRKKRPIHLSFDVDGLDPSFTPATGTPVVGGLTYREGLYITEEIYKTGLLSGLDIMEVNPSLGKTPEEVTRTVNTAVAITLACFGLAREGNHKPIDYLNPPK
Assay: Inhibition of Mn-hArgI by L-Orn and L-Leu
Type: biochemical
Settings: Ki L-Leu, pH 8.5
measured-endpoint: pKi
As a rule, pKi stands for the negative log10 of the concentration, concentration in M.

Fill in: pKi of CC(C)C[C@H](N)C(=O)O [L-Leu, L-Leucine] is ___ 3.19

###

Target: Mn-hArgI (Homo sapiens, UniProt P05089)
Experiment: Inhibition of Mn-hArgI by L-Orn and L-Leu
Assay type: biochemical
Conditions: read-out: Ki L-Orn, pH 8.5
measured-endpoint: pKi
As a rule, pKi stands for the negative log10 of the concentration, concentration in M.

Fill in: pKi of NCCC[C@H](N)C(=O)O [L-Orn, L-Ornithine] is ___ 3.28
